These entries and their values trace back to the supplement of paper PMC12667976.

B1: library; numbered along this chain (parent)
chain: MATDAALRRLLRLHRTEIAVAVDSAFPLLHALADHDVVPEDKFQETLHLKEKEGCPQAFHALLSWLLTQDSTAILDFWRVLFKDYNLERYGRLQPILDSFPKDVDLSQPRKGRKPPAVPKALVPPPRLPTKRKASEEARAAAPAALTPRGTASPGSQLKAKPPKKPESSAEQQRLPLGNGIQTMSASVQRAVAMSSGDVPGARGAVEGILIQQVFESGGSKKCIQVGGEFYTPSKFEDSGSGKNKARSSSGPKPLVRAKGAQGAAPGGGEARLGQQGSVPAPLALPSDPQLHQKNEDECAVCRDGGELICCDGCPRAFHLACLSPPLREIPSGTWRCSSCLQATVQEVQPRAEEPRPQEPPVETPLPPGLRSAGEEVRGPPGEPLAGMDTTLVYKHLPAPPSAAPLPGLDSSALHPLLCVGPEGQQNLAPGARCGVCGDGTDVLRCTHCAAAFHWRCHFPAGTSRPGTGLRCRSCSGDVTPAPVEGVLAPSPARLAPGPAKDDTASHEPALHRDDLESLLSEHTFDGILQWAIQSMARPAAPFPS

variants of: B1; test: AIRE transcriptional activation functional score (insulin promoter-GFP; nonsense median 0, synonymous median 1) (normalised score); higher = higher AIRE activity (more reporter activation); details: with insulin promoter-GFP reporter in HEK293
Decide by AIRE transcriptional activation functional score: equal to or exceeding 1 means yes, less means no.

{"mutant designation": "D502N", "classification": "no"}
{"mutant designation": "F543R", "classification": "no"}

Prompt line: Please tell me: is the variant `T3M` at or over 1 in terms of AIRE transcriptional activation functional score?
Response line: yes

Prompt line: Let us now turn to `G369D`
Response line: no

Prompt line: Also need `V301R` , thanks.
Response line: yes

Prompt line: Entry `D198S` please
Response line: yes

Prompt line: Query `G208I` next
Response line: no

Prompt line: What about this variant? `P542A`
Response line: yes

Prompt line: Same thing, different variant: `G201K`
Response line: no
